As shown below, each of these compounds has a reported viability, T/C value.
Tested on: KRAS PDC multicell spheroid viability
test.method.notes: Anticancer human tumor 521955-158-R6-J3-PDC patient-derived pancreatic carcinoma cell line growth inhibition [KRAS2]
test.parameters: second compound 1 µM; first compound 0.0316 µM; stronger effect = lower value
Provide the reading as a plain figure in %.

Any idea what viability, T/C was measured for Cn1ncnc1[C@H]1c2n[nH]c(=O)c3cc(F)cc(c23)N[C@@H]1c1ccc(F)cc1 + CC1OCC2(CCN(c3cnc(Sc4ccnc(N)c4Cl)c(N)n3)CC2)C1N ?
82.9

Which viability, T/C is listed for CCNC(=O)CC1N=C(c2ccc(Cl)cc2)c2cc(OC)ccc2-n2c(C)nnc21 (stereo unspecified) + CNCc1ccccc1-c1csc(C(C)Nc2nc(C)nc3cc(OC)c(OC)cc23)c1 ?
71.3

Can you share its viability, T/C? I mean this compound: CC(C)n1nc(-c2ccc3oc(N)nc3c2)c2c(N)ncnc21 + C=CC(=O)N1CCN(c2nc(=O)n(-c3c(C)ccnc3C(C)C)c3nc(-c4c(O)cccc4F)c(F)cc23)C(C)C1
67.4

Recorded viability, T/C for CC(C)NCC(C(=O)N1CCN(c2ncnc3c2C(C)CC3O)CC1)c1ccc(Cl)cc1 (stereo unspecified) + CC1OCC2(CCN(c3cnc(Sc4ccnc(N)c4Cl)c(N)n3)CC2)C1N , please?
78.1

Requested read-out: viability, T/C. Entry: CCNC(=O)CC1N=C(c2ccc(Cl)cc2)c2cc(OC)ccc2-n2c(C)nnc21 (stereo unspecified) + CC1OCC2(CCN(c3cnc(Sc4ccnc(N)c4Cl)c(N)n3)CC2)C1N
99.5

Name the recorded viability, T/C for O=C(c1cc(Cc2n[nH]c(=O)c3ccccc23)ccc1F)N1CCN(C(=O)C2CC2)CC1 + CC1OCC2(CCN(c3cnc(Sc4ccnc(N)c4Cl)c(N)n3)CC2)C1N .
75.8

* * *

pIC50 reference
Test system: KRAS PDC multicell spheroid viability
test.method.notes: Anticancer human tumor 521955-158-R6-J3-PDC cell line growth inhibition [KRAS2];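 further: drug exposure lasted seven days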
test.parameters: curve of first compound; second compound 0.1 µM
pIC50: −log10 of the molar value.

[[record]]
compound = "CC(C)n1nc(-c2ccc3oc(N)nc3c2)c2c(N)ncnc21 + C=CC(=O)N1CCN(c2nc(=O)n(-c3c(C)ccnc3C(C)C)c3nc(-c4c(O)cccc4F)c(F)cc23)C(C)C1"
test_target = "KRAS PDC multicell spheroid viability"
reported = "< 7.00"

[[record]]
compound = "O=C(c1cc(Cc2n[nH]c(=O)c3ccccc23)ccc1F)N1CCN(C(=O)C2CC2)CC1 + CC1OCC2(CCN(c3cnc(Sc4ccnc(N)c4Cl)c(N)n3)CC2)C1N"
test_target = "KRAS PDC multicell spheroid viability"
reported = "< 5.00"

[[record]]
compound = "CCNC(=O)CC1N=C(c2ccc(Cl)cc2)c2cc(OC)ccc2-n2c(C)nnc21 (stereo not given) + C=CC(=O)N1CCN(c2nc(OCC3CCCN3C)nc3c2CCN(c2cccc4cccc(C)c24)C3)CC1CC#N"
test_target = "KRAS PDC multicell spheroid viability"
reported = "< 5.00"

[[record]]
compound = "Cn1ncnc1[C@H]1c2n[nH]c(=O)c3cc(F)cc(c23)N[C@@H]1c1ccc(F)cc1 + C=CC(=O)N1CCN(c2nc(OCC3CCCN3C)nc3c2CCN(c2cccc4cccc(C)c24)C3)CC1CC#N"
test_target = "KRAS PDC multicell spheroid viability"
reported = "< 7.00"


Item COC(=O)c1ccc2c(C(=Nc3ccc(N(C)C(=O)CN4CCN(C)CC4)cc3)c3ccccc3)c(O)[nH]c2c1 + COc1cc2nc(C)nc(NC(C)c3cc(N)cc(C(F)(F)F)c3)c2cc1OC1CCOC1 has what recorded pIC50?
5.52

What does the record list as pIC50 for COc1cc2nccc(Oc3ccc(NC(=O)C4(C(=O)Nc5ccc(F)cc5)CC4)cc3)c2cc1OC + C=CC(=O)N1CCN(c2nc(=O)n(-c3c(C)ccnc3C(C)C)c3nc(-c4c(O)cccc4F)c(F)cc23)C(C)C1 ?
< 5.00

Record request: pIC50 value, item CC1OCC2(CCN(c3cnc(Sc4ccnc(N)c4Cl)c(N)n3)CC2)C1N (stereo not given) + C=CC(=O)N1CCN(c2nc(=O)n(-c3c(C)ccnc3C(C)C)c3nc(-c4c(O)cccc4F)c(F)cc23)C(C)C1
< 5.00

May I ask what pIC50 has been recorded for CC(C)NCC(C(=O)N1CCN(c2ncnc3c2C(C)CC3O)CC1)c1ccc(Cl)cc1 (stereo not given) + CNCc1ccccc1-c1csc(C(C)Nc2nc(C)nc3cc(OC)c(OC)cc23)c1 ?
< 5.00

Which measured pIC50 value corresponds to COc1cc2nccc(Oc3ccc(NC(=O)C4(C(=O)Nc5ccc(F)cc5)CC4)cc3)c2cc1OC + C=CC(=O)N1CCN(c2nc(OCC3CCCN3C)nc3c2CCN(c2cccc4cccc(C)c24)C3)CC1CC#N ?
< 5.00

Would you kindly share the measured pIC50 for Cn1ncnc1[C@H]1c2n[nH]c(=O)c3cc(F)cc(c23)N[C@@H]1c1ccc(F)cc1 + C=CC(=O)N1CCN(c2nc(=O)n(-c3c(C)ccnc3C(C)C)c3nc(-c4c(O)cccc4F)c(F)cc23)C(C)C1 ?
< 7.00

* * *

Test system: KRAS PDC multicell spheroid viability
test.method.notes: Anticancer human tumor 521955-158-R6-J3-PDC cell line growth inhibition [KRAS2]; active = viability on the fitted dose curve at most 10% of control; inactive = the rest;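 further: drug exposure lasted seven days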
test.parameters: second compound 3.16 µM; first compound 0.001 µM
Write down one outcome, taken from 1 (yes) (active), 0 (no) (inactive)

Solved entries (count: 10):
[[record]]
compound = "CC(=O)Nc1cccc(-n2c(=O)n(C3CC3)c(=O)c3c(Nc4ccc(I)cc4F)n(C)c(=O)c(C)c32)c1 + CNCc1ccccc1-c1csc(C(C)Nc2nc(C)nc3cc(OC)c(OC)cc23)c1"
assigned_class = "1 (yes)"

[[record]]
compound = "CC(C)n1nc(-c2ccc3oc(N)nc3c2)c2c(N)ncnc21 + C=CC(=O)N1CCN(c2nc(OCC3CCCN3C)nc3c2CCN(c2cccc4cccc(C)c24)C3)CC1CC#N"
assigned_class = "0 (no)"

[[record]]
compound = "Cn1ncnc1[C@H]1c2n[nH]c(=O)c3cc(F)cc(c23)N[C@@H]1c1ccc(F)cc1 + C=CC(=O)N1CCN(c2nc(OCC3CCCN3C)nc3c2CCN(c2cccc4cccc(C)c24)C3)CC1CC#N"
assigned_class = "0 (no)"

[[record]]
compound = "CN(C)C/C=C/C(=O)Nc1cc2c(Nc3ccc(F)c(Cl)c3)ncnc2cc1O[C@H]1CCOC1 + C=CC(=O)N1CCN(c2nc(=O)n(-c3c(C)ccnc3C(C)C)c3nc(-c4c(O)cccc4F)c(F)cc23)C(C)C1"
assigned_class = "0 (no)"

[[record]]
compound = "Cn1ncnc1[C@H]1c2n[nH]c(=O)c3cc(F)cc(c23)N[C@@H]1c1ccc(F)cc1 + C=CC(=O)N1CCN(c2nc(=O)n(-c3c(C)ccnc3C(C)C)c3nc(-c4c(O)cccc4F)c(F)cc23)C(C)C1"
assigned_class = "0 (no)"

[[record]]
compound = "CC(C)n1nc(-c2ccc3oc(N)nc3c2)c2c(N)ncnc21 + COc1cc2nc(C)nc(NC(C)c3cc(N)cc(C(F)(F)F)c3)c2cc1OC1CCOC1"
assigned_class = "0 (no)"

[[record]]
compound = "CC(C)n1nc(-c2ccc3oc(N)nc3c2)c2c(N)ncnc21 + CNCc1ccccc1-c1csc(C(C)Nc2nc(C)nc3cc(OC)c(OC)cc23)c1"
assigned_class = "1 (yes)"

[[record]]
compound = "Cn1ncnc1[C@H]1c2n[nH]c(=O)c3cc(F)cc(c23)N[C@@H]1c1ccc(F)cc1 + CNCc1ccccc1-c1csc(C(C)Nc2nc(C)nc3cc(OC)c(OC)cc23)c1"
assigned_class = "1 (yes)"

[[record]]
compound = "Cn1ncnc1[C@H]1c2n[nH]c(=O)c3cc(F)cc(c23)N[C@@H]1c1ccc(F)cc1 + COc1cc2nc(C)nc(NC(C)c3cc(N)cc(C(F)(F)F)c3)c2cc1OC1CCOC1"
assigned_class = "0 (no)"

[[record]]
compound = "CC(=O)Nc1cccc(-n2c(=O)n(C3CC3)c(=O)c3c(Nc4ccc(I)cc4F)n(C)c(=O)c(C)c32)c1 + C=CC(=O)N1CCN(c2nc(=O)n(-c3c(C)ccnc3C(C)C)c3nc(-c4c(O)cccc4F)c(F)cc23)C(C)C1"
assigned_class = "0 (no)"


With those in mind, consider the next compound.
What outcome does the record of this test show for CC(=O)Nc1cccc(-n2c(=O)n(C3CC3)c(=O)c3c(Nc4ccc(I)cc4F)n(C)c(=O)c(C)c32)c1 + CC1OCC2(CCN(c3cnc(Sc4ccnc(N)c4Cl)c(N)n3)CC2)C1N ?
0 (no)

* * *

Test system: KRAS PDC multicell spheroid viability
test.method.notes: Anticancer human tumor 521955-158-R6-J3-PDC cell line growth inhibition [KRAS2];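 further: drug exposure lasted seven days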;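 on viability, T/C: 100% = DMSO vehicle wells and lower means fewer viable cells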
test.parameters: second compound 0.0316 µM; first compound 0.316 µM; stronger effect = lower value
Reported viability, T/C values for a set of molecules
API: value field is a number in %; no unit string.

Before answering, review these 3 worked examples.
[[record]]
molecule = "COc1cc2nccc(Oc3ccc(NC(=O)C4(C(=O)Nc5ccc(F)cc5)CC4)cc3)c2cc1OC + C=CC(=O)N1CCN(c2nc(OCC3CCCN3C)nc3c2CCN(c2cccc4cccc(C)c24)C3)CC1CC#N"
test_target = "KRAS PDC multicell spheroid viability"
reported = 98.6

[[record]]
molecule = "CC(C)NCC(C(=O)N1CCN(c2ncnc3c2C(C)CC3O)CC1)c1ccc(Cl)cc1 (centres undefined) + C=CC(=O)N1CCN(c2nc(OCC3CCCN3C)nc3c2CCN(c2cccc4cccc(C)c24)C3)CC1CC#N"
test_target = "KRAS PDC multicell spheroid viability"
reported = 84.4

[[record]]
molecule = "COc1cc(Nc2ncc3c(n2)-c2ccc(Cl)cc2C(c2c(F)cccc2OC)=NC3)ccc1C(=O)O + C=CC(=O)N1CCN(c2nc(OCC3CCCN3C)nc3c2CCN(c2cccc4cccc(C)c24)C3)CC1CC#N"
test_target = "KRAS PDC multicell spheroid viability"
reported = 87.3


Here is the next item to consider.
Value wanted: viability, T/C (KRAS PDC multicell spheroid viability) of entry CC1(C)CCC(CN2CCN(c3ccc(C(=O)NS(=O)(=O)c4ccc(NCC5CCOCC5)c([N+](=O)[O-])c4)c(Oc4cnc5[nH]ccc5c4)c3)CC2)=C(c2ccc(Cl)cc2)C1 + C=CC(=O)N1CCN(c2nc(OCC3CCCN3C)nc3c2CCN(c2cccc4cccc(C)c24)C3)CC1CC#N
95.6
